Tested on: COLO-205
Test details: in vitro colon cancer cell growth inhibition (NCI screen)
Assign Fulfilled to entries whose cytotoxicity log GI50 meets or exceeds -5 M; assign Not fulfilled to the rest.

Solved entries (count: 5):
[[record]]
molecule = "COc1ccc(C(=O)NC2=C(Cl)C(=O)c3ccccc3C2=O)cc1 [Compound 2g]"
cat = "Not fulfilled"

[[record]]
molecule = "CCC(C)(C)n1c(C)nc2c1C(=O)c1ccccc1C2=O [Compound 12]"
cat = "Fulfilled"

[[record]]
molecule = "CCC(C)Cn1c(C)nc2c1C(=O)c1ccccc1C2=O (stereo not shown) [Compound 13]"
cat = "Fulfilled"

[[record]]
molecule = "CCNC1=C(NC(=O)CC)C(=O)c2ccccc2C1=O [Compound 45]"
cat = "Fulfilled"

[[record]]
molecule = "O=C1c2ccccc2C(=O)c2[nH]c(Cc3ccccc3F)nc21 [Compound 4b]"
cat = "Fulfilled"


input: Item Cc1nc2c(n1CCN(C)C)C(=O)c1ccccc1C2=O [Compound 15] with cytotoxicity log GI50 of -5 M or above?
output: Not fulfilled

input: Item CCNC1=C(NC(=O)c2ccccc2)C(=O)c2ccccc2C1=O [Compound 47] with cytotoxicity log GI50 of -5 M or above?
output: Fulfilled

input: Item CC(=O)NC1=C(NCC(C)(C)C)C(=O)c2ccccc2C1=O [Compound 38] with cytotoxicity log GI50 of -5 M or above?
output: Fulfilled

input: Item O=C(O)CCc1nc2c(n1Cc1ccccc1)C(=O)c1ccccc1C2=O [Compound 61] with cytotoxicity log GI50 of -5 M or above?
output: Fulfilled

input: Item CC(=O)NC1=C(NCCCl)C(=O)c2ccccc2C1=O [Compound 43] with cytotoxicity log GI50 of -5 M or above?
output: Fulfilled

----------
Test system: HOP-62
Test details: in vitro non-small cell lung cancer cell growth inhibition (NCI screen)
cytotoxicity log GI50 values by entry
Note: unit M is implicit; provide only the numeric part.

// solved cases for cytotoxicity log GI50 follow
[[record]]
molecule = "CCn1c(-c2ccc(OC)cc2)nc2c1C(=O)c1ccccc1C2=O [Compound 27]"
assay_metric = "cytotoxicity log GI50"
assay_result = -4.22

[[record]]
molecule = "CCNC1=C(NC(=O)CCl)C(=O)c2ccccc2C1=O [Compound 44]"
assay_metric = "cytotoxicity log GI50"
assay_result = -4.78

[[record]]
molecule = "NC1=C(NC(=O)Cc2ccccc2F)C(=O)c2ccccc2C1=O [Compound 3b]"
assay_metric = "cytotoxicity log GI50"
assay_result = -4.59


Moving on to the next molecule.
input: Given NC1=C(NC(=O)Cc2ccc(F)cc2)C(=O)c2ccccc2C1=O [Compound 3c] , state its recorded cytotoxicity log GI50.
output: -4.56

----------
System: SK-MEL-28
Test details: in vitro melanoma cell growth inhibition (NCI screen)
Assign yes (1) to entries whose cytotoxicity log GI50 meets or exceeds -5 M; assign no (0) to the rest.

Solved entries (count: 6):
[[record]]
mol = "COC(=O)CCCC(=O)NC1=C(Nc2ccc(OC)cc2)C(=O)c2ccccc2C1=O"
tested_system = "SK-MEL-28"
cat = "yes (1)"

[[record]]
mol = "COc1cc(OC)cc(C(=O)NC2=C(Cl)C(=O)c3ccccc3C2=O)c1"
tested_system = "SK-MEL-28"
cat = "no (0)"

[[record]]
mol = "CC(=O)NC1=C(NCC(C)C)C(=O)c2ccccc2C1=O"
tested_system = "SK-MEL-28"
cat = "yes (1)"

[[record]]
mol = "O=C(Cc1ccccc1F)NC1=C(Cl)C(=O)c2ccccc2C1=O"
tested_system = "SK-MEL-28"
cat = "no (0)"

[[record]]
mol = "CC(=O)NC1=C(NCc2ccc(Cl)cc2)C(=O)c2ccccc2C1=O"
tested_system = "SK-MEL-28"
cat = "no (0)"

[[record]]
mol = "CCNC1=C(NC(=O)CCl)C(=O)c2ccccc2C1=O"
tested_system = "SK-MEL-28"
cat = "yes (1)"


input: Item COc1ccc(C(=O)NC2=C(Cl)C(=O)c3ccccc3C2=O)cc1 with cytotoxicity log GI50 of -5 M or above?
output: no (0)

input: Item COC(=O)CCC(=O)NC1=C(Nc2ccccc2)C(=O)c2ccccc2C1=O with cytotoxicity log GI50 of -5 M or above?
output: no (0)

----------
cytotoxicity log GI50 values by entry
Test system: LXFL 529
Test details: in vitro non-small cell lung cancer cell growth inhibition (NCI screen)
Dear colleague, please send the value followed by its unit.

input: Given Cc1ccc(Cn2c(C)nc3c2C(=O)c2ccccc2C3=O)cc1 [Compound 17] , state its recorded cytotoxicity log GI50.
output: -5.76 M

input: Given O=C(Cc1ccccc1F)NC1=C(Cl)C(=O)c2ccccc2C1=O [Compound 2i] , state its recorded cytotoxicity log GI50.
output: -6.40 M

input: Given CC(=O)NC1=C(NCC(C)C)C(=O)c2ccccc2C1=O [Compound 31] , state its recorded cytotoxicity log GI50.
output: -4.79 M

input: Given CC(=O)NC1=C(NC(C)(C)C)C(=O)c2ccccc2C1=O [Compound 32] , state its recorded cytotoxicity log GI50.
output: -4.82 M

----------
Test system: SW 620
Test details: in vitro colon cancer cell growth inhibition (NCI screen)
Assay metric: cytotoxicity log GI50 (M)
Note: unit M is implicit; provide only the numeric part.

// solved cases for cytotoxicity log GI50 follow
[[record]]
compound = "O=C1c2ccccc2C(=O)c2[nH]c(Cc3ccccc3F)nc21"
tested_system = "SW 620"
assay_result = -4.42

[[record]]
compound = "CCC(C)NC1=C(NC(C)=O)C(=O)c2ccccc2C1=O (stereo not drawn)"
tested_system = "SW 620"
assay_result = -4.65

[[record]]
compound = "CCCC(=O)NC1=C(NCC)C(=O)c2ccccc2C1=O"
tested_system = "SW 620"
assay_result = -4.48

[[record]]
compound = "CCn1c(C)nc2c1C(=O)c1ccccc1C2=O"
tested_system = "SW 620"
assay_result = -6.17

[[record]]
compound = "COC(=O)CCC(=O)NC1=C(NCc2ccccc2)C(=O)c2ccccc2C1=O"
tested_system = "SW 620"
assay_result = -4.70

[[record]]
compound = "O=C(O)CCc1nc2c(n1Cc1ccccc1)C(=O)c1ccccc1C2=O"
tested_system = "SW 620"
assay_result = -4.50

[[record]]
compound = "O=C(NC1=C(Cl)C(=O)c2ccccc2C1=O)c1ccccc1"
tested_system = "SW 620"
assay_result = -4.76

[[record]]
compound = "O=C1c2ccccc2C(=O)c2[nH]c(Cc3ccc(F)cc3)nc21"
tested_system = "SW 620"
assay_result = -4.84


Moving on to the next compound.
input: Given CC(=O)NC1=C(NC(C)(C)C)C(=O)c2ccccc2C1=O , state its recorded cytotoxicity log GI50.
output: -4.85

----------
System: M14
Test details: in vitro melanoma cell growth inhibition (NCI screen)
Assign 1 (yes) to entries whose cytotoxicity log GI50 meets or exceeds -5 M; assign 0 (no) to the rest.

Solved entries (count: 5):
[[record]]
compound = "COC(=O)CCCC(=O)NC1=C(Nc2ccc(OC)cc2)C(=O)c2ccccc2C1=O [Compound 53]"
tested_system = "M14"
cat = "1 (yes)"

[[record]]
compound = "COC(=O)CCCC(=O)NC1=C(NCc2ccccc2)C(=O)c2ccccc2C1=O [Compound 51]"
tested_system = "M14"
cat = "1 (yes)"

[[record]]
compound = "Cc1nc2c(n1CCCl)C(=O)c1ccccc1C2=O [Compound 21]"
tested_system = "M14"
cat = "0 (no)"

[[record]]
compound = "COc1cc(OC)cc(C(=O)NC2=C(Cl)C(=O)c3ccccc3C2=O)c1 [Compound 2h]"
tested_system = "M14"
cat = "0 (no)"

[[record]]
compound = "COc1ccc(C(=O)NC2=C(Cl)C(=O)c3ccccc3C2=O)cc1 [Compound 2g]"
tested_system = "M14"
cat = "0 (no)"


input: Item CCNC1=C(NC(=O)c2ccccc2)C(=O)c2ccccc2C1=O [Compound 47] with cytotoxicity log GI50 of -5 M or above?
output: 1 (yes)

input: Item O=C(O)CCCc1nc2c(n1Cc1ccccc1)C(=O)c1ccccc1C2=O [Compound 57] with cytotoxicity log GI50 of -5 M or above?
output: 0 (no)

input: Item O=C(O)CCc1nc2c(n1Cc1ccccc1)C(=O)c1ccccc1C2=O [Compound 61] with cytotoxicity log GI50 of -5 M or above?
output: 1 (yes)

input: Item CCNC1=C(NC(=O)CC)C(=O)c2ccccc2C1=O [Compound 45] with cytotoxicity log GI50 of -5 M or above?
output: 1 (yes)

input: Item CCNC1=C(NC(=O)c2ccc(F)cc2)C(=O)c2ccccc2C1=O [Compound 48] with cytotoxicity log GI50 of -5 M or above?
output: 1 (yes)

----------
Test system: NCI-H522
Test details: in vitro non-small cell lung cancer cell growth inhibition (NCI screen)
cytotoxicity log GI50 values by entry
Note: unit M is implicit; provide only the numeric part.

[[record]]
mol = "COc1ccc(Cn2c(C)nc3c2C(=O)c2ccccc2C3=O)cc1"
assay_metric = "cytotoxicity log GI50"
assay_result = -5.22

[[record]]
mol = "CC(=O)NC1=C(NCCN(C)C)C(=O)c2ccccc2C1=O"
assay_metric = "cytotoxicity log GI50"
assay_result = -4.99

[[record]]
mol = "Cc1nc2c(n1CC(C)C)C(=O)c1ccccc1C2=O"
assay_metric = "cytotoxicity log GI50"
assay_result = -4.58


input: Given CCNC1=C(NC(=O)CC)C(=O)c2ccccc2C1=O , state its recorded cytotoxicity log GI50.
output: -4.34

input: Given CCn1c(-c2ccccc2)nc2c1C(=O)c1ccccc1C2=O , state its recorded cytotoxicity log GI50.
output: -4.82

input: Given CCNC1=C(NC(=O)c2ccc(F)cc2)C(=O)c2ccccc2C1=O , state its recorded cytotoxicity log GI50.
output: -4.68

input: Given CCn1c(-c2cc(OC)cc(OC)c2)nc2c1C(=O)c1ccccc1C2=O , state its recorded cytotoxicity log GI50.
output: -5.19

input: Given CCn1c(CCl)nc2c1C(=O)c1ccccc1C2=O , state its recorded cytotoxicity log GI50.
output: -6.53

input: Given COc1cc(OC)cc(C(=O)NC2=C(Cl)C(=O)c3ccccc3C2=O)c1 , state its recorded cytotoxicity log GI50.
output: -6.49

input: Given Cc1nc2c(n1CCO)C(=O)c1ccccc1C2=O , state its recorded cytotoxicity log GI50.
output: -4.84
